Where do these numbers come from? They come from patent US20250114338A1.

Tested on: ER-alpha MCF7
Assay: ER-alpha MCF7 HCS EC50; stated as measured by in vitro cell proliferation assays of Examples 902 and 903
Format: cell-based
Conditions: Homo sapiens, MCF7, MCF7 cells; Table 2
Please note: EC50 exactly at 200 pM is false. Only values below 200 pM get true.

These solved cases illustrate the format of a correct answer.
compound="C[C@@H]1Cc2c([nH]c3ccccc23)[C@@H](c2c(F)cc(OCCN3CC(CCl)C3)cc2F)N1CC(C)(C)F [Example 265]" experimentalsystem="ER-alpha MCF7" label=false
compound="C[C@H](CN1[C@H](c2c(F)cc(OCCN3CC(CF)C3)cc2F)c2[nH]c3ccccc3c2C[C@H]1C)c1ccccc1 [Example 199]" experimentalsystem="ER-alpha MCF7" label=false
compound="C[C@@H]1Cc2c([nH]c3ccccc23)[C@@H](c2c(F)cc(OCCN3CC(C)(CF)C3)cc2F)N1CC(C)(C)F [Example 160]" experimentalsystem="ER-alpha MCF7" label=false

Does this compound meet the criterion EC50 < 200 pM? C[C@@H]1Cc2c([nH]c3ccccc23)[C@@H](c2ccc(OCCN3CC(CF)C3)cc2F)N1C(=O)C(C)(C)F [Example 230]
true

Okay, and C[C@@H]1Cc2c([nH]c3ccccc23)[C@@H](c2c(F)cc(OC3CN([C@H]4C[C@H](O)C4)C3)cc2F)N1CC(C)(C)F [Example 331] ?
false

Follow-up entry: C[C@@H]1Cc2c([nH]c3ccccc23)[C@@H](c2c(F)cc(OCCN3CC(CF)C3)cc2F)N1C[C@H](F)CO [Example 394]
false

Now consider C[C@H]1Cc2c([nH]c3cccc(F)c23)[C@H](c2c(F)cc(NC3CN(CCCF)C3)cc2F)N1CC(F)(F)F [Example 408] .
false

Let us now turn to C[C@@H]1Cc2c([nH]c3ccccc23)[C@@H](c2c(F)cc(OC3CN(CC=C(F)F)C3)cc2F)N1CC(C)(C)F [Example 317]
true

Now this one: C[C@@H]1Cc2c([nH]c3ccccc23)[C@@H](c2c(F)cc(OC3CN(CCCF)C3)cc2F)N1C[C@@H](C)O [Example 264]
false

Please give the result for C[C@@H]1Cc2c([nH]c3ccc(F)cc23)[C@@H](c2c(F)cc(OCCN3CC(CF)C3)cc2F)N1CC(F)(F)F [Example 356] too.
false

Another compound: CC(C)[S@+]([O-])N1[C@H](c2ccc(OCCN3CC(CF)C3)cc2)c2[nH]c3ccccc3c2C[C@H]1C [Example 332]
false

And C[C@@H]1Cc2c([nH]c3ccccc23)[C@@H](c2c(F)cc(OC3CN(C/C=C/F)C3)cc2F)N1CC(C)(C)F [Example 308] ?
true

Would you kindly repeat that for C[C@H](CN1[C@H](c2c(F)cc(OCCN3CC(CF)C3)cc2F)c2[nH]c3ccccc3c2C[C@H]1C)C(=O)N(C)C [Example 298] ?
false

Also check C[C@@H]1Cc2c([nH]c3ccccc23)[C@H](c2c(F)cc(NC3CN(CCCF)C3)cc2F)N1S(C)(=O)=O [Example 315]
false

Input CC(C)(F)CN1[C@@H](CO)Cc2c([nH]c3ccccc23)[C@@H]1c1c(F)cc(OCCN2CC(CF)C2)cc1F [Example 131]
true

// same read-out, input: C[C@@H]1Cc2c([nH]c3ccccc23)[C@@H](c2cc(F)c(OC3CN(CCCF)C3)cc2F)N1CC(C)(C)F [Example 339]
false

What do you have for C[C@@H]1Cc2c([nH]c3ccccc23)[C@@H](c2c(F)cc(NCCN3CC(CF)C3)cc2F)N1CC(C)(C)F [Example 321] ?
false

* * *

System: ER-alpha MCF7
Test: ER-alpha MCF7 HCS EC50; stated as measured by in vitro cell proliferation assays of Examples 902 and 903
Format: cell-based
Conditions: Homo sapiens, MCF7, MCF7 cells; Table 2
measuredParameter: EC50 (nM)
Reply with just the number (in nM).

Recorded EC50, per entry:
molecule=C[C@@H]1Cc2c([nH]c3ccccc23)[C@@H](c2ccc(OCCN3CC(CF)C3)cc2Cl)N1CC(C)(C)F measuredparameter=EC50 obsvalue=0.1
molecule=C[C@H](CF)CN1[C@H](c2c(F)cc(OCCN3CC(CF)C3)cc2F)c2[nH]c3ccccc3c2C[C@H]1C measuredparameter=EC50 obsvalue=0.459
molecule=CCCN1CC(Oc2cc(F)c([C@@H]3c4[nH]c5ccccc5c4C[C@@H](C)N3CC(C)C)c(F)c2)C1 measuredparameter=EC50 obsvalue=0.408
molecule=C[C@@H]1Cc2c([nH]c3ccccc23)[C@@H](c2c(F)cc(OCCN3CC(CF)C3)cc2F)N1C(=O)C1CC1 measuredparameter=EC50 obsvalue=2.48
molecule=C[C@@H]1Cc2c([nH]c3ccccc23)[C@@H](c2ccc(OCCN3CC(CF)C3)cc2)N1S(=O)(=O)N(C)C measuredparameter=EC50 obsvalue=1
molecule=CCCN1CC(COc2cc(F)c([C@@H]3c4[nH]c5ccccc5c4C[C@@H](C)N3CC(C)(C)F)c(F)c2)C1 measuredparameter=EC50 obsvalue=0.362
molecule=C[C@@H]1Cc2c([nH]c3ccccc23)[C@@H](c2c(F)cc(OCCN3CC(CF)C3)cc2F)N1CCC(F)(F)F measuredparameter=EC50 obsvalue=3
molecule=C[C@@H]1Cc2c([nH]c3ccccc23)[C@@H](c2c(F)cc(OCCN3CC(CF)C3)cc2F)N1C[C@H](C)C(=O)N(C)C measuredparameter=EC50 obsvalue=18

// query EC50 value for entry C[C@H]1Cc2c([nH]c3cccc(F)c23)[C@H](c2c(F)cc(NC3CN(CCCF)C3)cc2F)N1C[C@@](C)(F)CO
1.1

Thanks! And CC(=O)CN1[C@H](c2c(F)cc(OC3CN(CCCF)C3)cc2F)c2[nH]c3ccccc3c2C[C@H]1C ?
1

* * *

Test system: ER-alpha MCF7
Test: ER-alpha MCF7 HCS EC50; stated as measured by in vitro cell proliferation assays of Examples 902 and 903
Type: cell-based
Details: Homo sapiens, MCF7, MCF7 cells; Table 2
Rule: measured EC50 below 0.1 nM gets 1 (yes); anything equal to or greater than 0.1 nM gets 0 (no).

Reference set (3 entries):
molecule=C[C@@H]1Cc2c([nH]c3ccccc23)[C@@H](c2c(F)cc(OC3CN(C)C3)cc2F)N1CC(C)(C)F label="1 (yes)"
molecule=C[C@@H]1Cc2c([nH]c3ccc(F)cc23)[C@@H](c2c(F)cc(NC3CN(CCCF)C3)cc2F)N1C[C@](C)(F)CO label="1 (yes)"
molecule="CCCC(C)N1CC(Oc2cc(F)c([C@@H]3c4[nH]c5ccccc5c4C[C@@H](C)N3CC(C)(C)F)c(F)c2)C1 (stereo partly drawn)" label="0 (no)"

Now look at this one.
API: query returns whether the molecule falls strictly under 0.1 nM in EC50. Query: C[C@@H]1Cc2c([nH]c3cc(F)ccc23)[C@@H](c2c(F)cc(NC3CN(CCCF)C3)cc2F)N1CC(F)(F)F
0 (no)

* * *

EC50 overview
Test system: ER-alpha MCF7
Assay: ER-alpha MCF7 HCS EC50; stated as measured by in vitro cell proliferation assays of Examples 902 and 903
Format: cell-based
Details: Homo sapiens, MCF7, MCF7 cells; Table 2
The figure you give is taken to be in nM; do not add the unit.

molecule=C[C@@H]1Cc2c([nH]c3ccccc23)[C@@H](c2c(F)cc(OCCN3CC(CF)C3)cc2F)N1CC(=O)N(C)C measuredparameter=EC50 obsvalue=40

So what does the record say about EC50 for C[C@H]1Cc2c([nH]c3ccc(Cl)cc23)[C@H](c2c(F)cc(OC3CN(CCCF)C3)cc2F)N1CC(C)(C)F ?
63

Now consider C[C@@H]1Cc2c([nH]c3ccccc23)[C@@H](c2c(F)cc(OCCN3CC(CF)C3)cc2F)N1CC(F)(F)CO and answer again.
0.0978

Now the molecule CC(CN1[C@H](c2c(F)cc(OC3CN(CCCF)C3)cc2F)c2[nH]c3ccccc3c2C[C@H]1C)C(=O)O (stereo in doubt)
14

Cool, now C[C@@H]1Cc2c([nH]c3ccccc23)[C@@H](c2c(F)cc(OCCN3CC(CF)C3)cc2F)N1CC1CCCC1
1

* * *

System: ER-alpha MCF7
Assay: ER-alpha MCF7 HCS EC50; stated as measured by in vitro cell proliferation assays of Examples 902 and 903
Assay type: cell-based
Conditions: Homo sapiens, MCF7, MCF7 cells; Table 2
Quick reference: EC50 of the listed items.
Express it in nM; write the number only.

compoundstructure=C[C@@H]1Cc2c([nH]c3ccccc23)[C@@H](c2c(F)cc(OC3CN(CCCF)C3)cc2F)N1CC(C)(C)CF measuredparameter=EC50 resultunits=nM obsvalue=0.685
compoundstructure=C[C@@H]1Cc2c([nH]c3ccccc23)[C@@H](c2c(F)cc(OC3CN(CCCF)C3)cc2F)N1CC(F)(F)F measuredparameter=EC50 resultunits=nM obsvalue=0.09
compoundstructure=C[C@@H]1Cc2c([nH]c3ccccc23)[C@@H](c2c(F)cc(OC3CN(CC4CC(F)(F)C4)C3)cc2F)N1CC(C)(C)F measuredparameter=EC50 resultunits=nM obsvalue=0.444

# input for lookup
So what's the measured EC50 for this one? C[C@@H]1Cc2c([nH]c3ccccc23)[C@@H](c2c(F)cc(OCCN3CC(CF)C3)cc2F)N1CC1CCCCC1
13
